Target: biotinylated RBD (BLI sensors) (UniProt P0DTC2 319-537)
Assay: BLI
measure.name: pKd
Lab note — pKd values are minus log10 of concentrations in M.

// sample Ab 27 scFv-Fc (scFv, V domains shown) VH: QVQLVQSGTEVKKPGASVKVSCKASGYSFTGSHLHWVRQAPGQGLEWMGWINPDSGVINYAQKFQGRVTLTRDTSISTAYMELSGLRSDDTAVYYCARDKAIGYVWALDYWGQGTLVTVSS VL: QSALTQPPSVSGSPGQSVTISCTGTSSDVGTYNRVSWYQQPPGKAPKLMIYEVSNRPSGVSNRFSGSKSGNTASLTISGLQAEDEADYYCSSYTRTFTYVFGTGTKVTVL , its pKd was 9.04
